target: MERS-CoV M^pro (Middle East respiratory syndrome-related coronavirus)
Sequence (K9N7C7 3248-3553 limits assumed): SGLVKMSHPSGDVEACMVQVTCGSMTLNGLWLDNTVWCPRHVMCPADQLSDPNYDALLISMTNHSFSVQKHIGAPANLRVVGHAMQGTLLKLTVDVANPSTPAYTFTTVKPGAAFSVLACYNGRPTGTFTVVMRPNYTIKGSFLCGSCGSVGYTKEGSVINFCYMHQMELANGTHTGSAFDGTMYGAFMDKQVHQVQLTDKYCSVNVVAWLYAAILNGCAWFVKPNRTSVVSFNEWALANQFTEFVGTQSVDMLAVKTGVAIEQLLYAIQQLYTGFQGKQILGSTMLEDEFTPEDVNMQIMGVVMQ
readoutName: IC50 (µM)
Write the number in µM without appending the unit.

Please indicate recorded IC50 of CC(C)(C)NC(=O)N[C@H](C(=O)N1C[C@H]2[C@@H]([C@H]1C(=O)NC(CC1CCC1)C(=O)C(N)=O)C2(C)C)C(C)(C)C (stereo partly shown) measured with MERS-CoV M^pro (Middle East respiratory syndrome-related coronavirus).
10.4

---

target: HCoV-OC43 M^pro (Human coronavirus OC43); assay: biochemical
Sequence (P0C6X6 3247-3549 limits assumed): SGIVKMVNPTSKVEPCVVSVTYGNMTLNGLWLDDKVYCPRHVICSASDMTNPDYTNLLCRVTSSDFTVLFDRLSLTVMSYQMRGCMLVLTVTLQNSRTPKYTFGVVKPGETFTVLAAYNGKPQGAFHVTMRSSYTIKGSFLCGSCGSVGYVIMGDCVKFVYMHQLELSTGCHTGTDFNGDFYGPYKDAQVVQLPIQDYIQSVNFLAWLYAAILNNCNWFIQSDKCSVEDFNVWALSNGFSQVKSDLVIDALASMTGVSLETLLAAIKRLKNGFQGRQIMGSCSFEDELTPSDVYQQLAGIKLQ
readoutName: IC50 (µM)
Provide only the numeric value, understood in µM.

Look up and state reported IC50 for CC(C)(C)NC(=O)N[C@H](C(=O)N1C[C@H]2[C@@H]([C@H]1C(=O)NC(CC1CCC1)C(=O)C(N)=O)C2(C)C)C(C)(C)C (stereo partly shown) [boceprevir]
9
